This collection of values is drawn from patent US8822517B2.

molecular target: serotoninergic 5-HT7 receptor (Homo sapiens); assay: Binding assay 5-HT7 (h), [3H]LSD, CHO cells; set-up: expressed in transfected cells; host or cells: CHO cells; details: read-out: 5-HT7
Sequence (P34969 whole entry): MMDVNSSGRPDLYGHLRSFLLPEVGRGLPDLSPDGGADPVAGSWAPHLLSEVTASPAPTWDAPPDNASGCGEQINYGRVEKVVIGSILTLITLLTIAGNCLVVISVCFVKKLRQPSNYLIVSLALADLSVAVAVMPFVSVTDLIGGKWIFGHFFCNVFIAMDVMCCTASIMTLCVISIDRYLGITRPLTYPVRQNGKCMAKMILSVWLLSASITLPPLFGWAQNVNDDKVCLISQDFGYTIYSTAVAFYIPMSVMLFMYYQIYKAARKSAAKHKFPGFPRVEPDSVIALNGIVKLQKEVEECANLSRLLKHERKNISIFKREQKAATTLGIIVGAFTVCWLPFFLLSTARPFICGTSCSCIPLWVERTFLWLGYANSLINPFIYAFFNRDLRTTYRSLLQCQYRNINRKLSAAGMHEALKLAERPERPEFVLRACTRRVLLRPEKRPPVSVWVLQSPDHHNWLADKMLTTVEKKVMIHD
measuredMetric: inhibition at 1 µM
Lab note: write values as number then unit, every time.

For orientation, consider the following solved cases.
1. O=S(=O)(NCCCCN1CCC(c2noc3cc(F)ccc23)CC1)c1cccc(F)c1 = 91%
2. O=S(=O)(NCCCCN1CCN(c2nsc3ccccc23)CC1)c1ccc(F)c(F)c1 = 92%
3. O=S(=O)(NCCCCN1CCN(c2nsc3ccccc23)CC1)c1ccc(Br)cc1 = 89%
4. O=C1COc2c(cccc2N2CCN(CCCCNS(=O)(=O)c3cccc(C(F)(F)F)c3)CC2)N1 = 84%

Inquiry: Write down inhibition at 1 µM measured for item O=S(=O)(NCCCCN1CCC(c2noc3cc(F)ccc23)CC1)c1cc2ccccc2s1
Reply text: 97%

* * *

molecular target: serotoninergic receptor 5-HT2C (Homo sapiens); construct: expressed in transfected cells; host or cells: HEK-293 cells; experiment: Binding assay 5-HT2C (h), [3H]mesulergine, HEK-293 cells; settings: read-out: 5-HT2C [%]
Sequence (P28335 33-458): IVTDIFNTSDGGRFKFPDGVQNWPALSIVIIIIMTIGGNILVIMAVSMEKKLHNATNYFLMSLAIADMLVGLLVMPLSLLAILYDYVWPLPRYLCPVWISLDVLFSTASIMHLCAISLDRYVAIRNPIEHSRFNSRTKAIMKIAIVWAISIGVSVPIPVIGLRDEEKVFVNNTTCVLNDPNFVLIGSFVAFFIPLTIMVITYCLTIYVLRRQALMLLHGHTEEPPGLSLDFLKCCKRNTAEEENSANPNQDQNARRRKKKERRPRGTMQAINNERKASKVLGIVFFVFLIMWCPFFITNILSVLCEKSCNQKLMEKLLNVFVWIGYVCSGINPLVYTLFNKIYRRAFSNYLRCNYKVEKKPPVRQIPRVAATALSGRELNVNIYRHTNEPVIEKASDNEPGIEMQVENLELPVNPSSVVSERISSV
measuredMetric: inhibition at 1 µM (%)
Answers are plain numbers, in %.

For orientation, consider the following solved cases.
1. O=S(=O)(NCCCCN1CCN(c2noc3ccccc23)CC1)c1ccc2cc(Cl)ccc2c1 = 72
2. O=S(=O)(NCCCCN1CCN(c2cccc3[nH]ccc23)CC1)c1ccc2cc(Cl)ccc2c1 = 62
3. O=c1[nH]c2cccc(N3CCN(CCCNS(=O)(=O)c4ccc(Cl)cc4)CC3)c2[nH]1 = 24
4. O=S(=O)(NCCCN1CCN(c2nsc3ccccc23)CC1)c1cccc(C(F)(F)F)c1 = 86
5. O=S(=O)(NCCN1CC=C(c2c[nH]c3ccc(F)cc23)CC1)c1cccc(F)c1 = 41

Can you give me inhibition at 1 µM for all of these, one by one?
1. O=S(=O)(NCCCCN1CCN(c2nsc3ccccc23)CC1)c1cccc2ccccc12
2. O=S(=O)(NCCCCN1CCN(c2cccc3[nH]ccc23)CC1)c1ccc(F)c(F)c1

Reply text:
1: 80; 2: 11

Can you give me inhibition at 1 µM for all of these, one by one?
1. O=S(=O)(NCCCCN1CCN(c2cccc3[nH]ccc23)CC1)c1cccc(F)c1
2. O=S(=O)(NCCCN1CCN(c2nsc3ccccc23)CC1)c1ccc(Br)cc1
3. O=S(=O)(NCCCN1CCN(c2nsc3ccccc23)CC1)c1cccc2ccccc12
4. Cc1[nH]c2ccc(Cl)cc2c1C1=CCN(CCCCNS(=O)(=O)c2ccc(Cl)cc2)CC1
5. O=S(=O)(NCCCCN1CCN(c2nsc3ccccc23)CC1)c1ccc2c(c1)OCO2

Reply text:
1. 6
2. 84
3. 81
4. 21
5. 72

Can you give me inhibition at 1 µM for all of these, one by one?
1. O=S(=O)(NCCCN1CCN(c2nsc3ccccc23)CC1)c1ccc(F)cc1
2. N#Cc1cccc(S(=O)(=O)NCCCN2CCC(c3noc4cc(F)ccc34)CC2)c1
3. O=S(=O)(NCCCCN1CCN(c2cccc3[nH]ccc23)CC1)c1cnc2ccccn12

Reply text:
1: 84; 2: 76; 3: 11

Can you give me inhibition at 1 µM for all of these, one by one?
1. O=S(=O)(NCCCCN1CCN(c2nsc3ccccc23)CC1)c1cc2ccccc2s1
2. O=S(=O)(NCCCCN1CCC(c2noc3cc(F)ccc23)CC1)c1cccc2ccccc12
3. O=c1[nH]c2cccc(N3CCN(CCCNS(=O)(=O)c4cccc(F)c4)CC3)c2[nH]1

Reply text:
[88, 62, 9]

* * *

molecular target: dopaminergic D3 receptor (Homo sapiens, UniProt P35462); assay: Cellular functional assay, dopaminergic D3 receptor (agonism/antagonism); type: cell-based; details: CHO; read-out: D3-antag. [%]
Sequence (P35462 whole entry): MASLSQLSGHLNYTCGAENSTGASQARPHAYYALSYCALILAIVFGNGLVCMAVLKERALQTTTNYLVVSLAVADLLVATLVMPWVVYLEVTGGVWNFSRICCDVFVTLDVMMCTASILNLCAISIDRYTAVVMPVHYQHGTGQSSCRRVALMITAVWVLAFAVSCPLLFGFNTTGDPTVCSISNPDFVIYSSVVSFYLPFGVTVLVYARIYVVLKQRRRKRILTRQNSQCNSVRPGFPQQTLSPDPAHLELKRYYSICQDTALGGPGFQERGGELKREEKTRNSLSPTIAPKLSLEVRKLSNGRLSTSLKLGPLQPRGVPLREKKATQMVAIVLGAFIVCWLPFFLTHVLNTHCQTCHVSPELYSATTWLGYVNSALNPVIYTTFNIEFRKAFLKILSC
Values of inhibition at 1 µM greater than or equal to 80% map to fulfilled; values below map to not fulfilled.

Previously resolved entries follow.
1) O=S(=O)(NCCCCN1CCC(c2noc3cc(F)ccc23)CC1)c1ccc(Br)cc1 = fulfilled
2) Cc1c(S(=O)(=O)NCCCN2CCC(c3noc4cc(F)ccc34)CC2)sc2ccc(F)cc12 = fulfilled
3) O=S(=O)(NCCCCN1CCN(c2nsc3ccccc23)CC1)c1cccc2ccccc12 = not fulfilled

Inquiry: Please indicate if the recorded inhibition at 1 µM for O=S(=O)(NCCCCN1CCC(c2noc3cc(F)ccc23)CC1)c1cc2ccc(Cl)cc2s1 meets or exceeds 80%.
Reply text: fulfilled

Inquiry: Please indicate if the recorded inhibition at 1 µM for O=c1[nH]c2cccc(N3CCN(CCCNS(=O)(=O)c4ccc5ccccc5c4)CC3)c2[nH]1 meets or exceeds 80%.
Reply text: not fulfilled

Inquiry: Please indicate if the recorded inhibition at 1 µM for O=S(=O)(NCCCCN1CCN(c2noc3ccccc23)CC1)c1ccc(-c2ccccc2)cc1 meets or exceeds 80%.
Reply text: not fulfilled

Inquiry: Please indicate if the recorded inhibition at 1 µM for O=S(=O)(NCCCCN1CCN(c2noc3ccccc23)CC1)c1ccc2cc(Cl)ccc2c1 meets or exceeds 80%.
Reply text: not fulfilled

Inquiry: Please indicate if the recorded inhibition at 1 µM for O=S(=O)(NCCCN1CCC(c2noc3cc(F)ccc23)CC1)c1ccc2cn[nH]c2c1 meets or exceeds 80%.
Reply text: fulfilled

* * *

molecular target: serotonine transporter (SERT) receptor (Homo sapiens); construct: expressed in transfected cells; host or cells: CHO cells; assay: Binding assay SERT (h), [3H]imipramine, CHO cells; settings: read-out: SERT [%]
Sequence (P31645 whole entry): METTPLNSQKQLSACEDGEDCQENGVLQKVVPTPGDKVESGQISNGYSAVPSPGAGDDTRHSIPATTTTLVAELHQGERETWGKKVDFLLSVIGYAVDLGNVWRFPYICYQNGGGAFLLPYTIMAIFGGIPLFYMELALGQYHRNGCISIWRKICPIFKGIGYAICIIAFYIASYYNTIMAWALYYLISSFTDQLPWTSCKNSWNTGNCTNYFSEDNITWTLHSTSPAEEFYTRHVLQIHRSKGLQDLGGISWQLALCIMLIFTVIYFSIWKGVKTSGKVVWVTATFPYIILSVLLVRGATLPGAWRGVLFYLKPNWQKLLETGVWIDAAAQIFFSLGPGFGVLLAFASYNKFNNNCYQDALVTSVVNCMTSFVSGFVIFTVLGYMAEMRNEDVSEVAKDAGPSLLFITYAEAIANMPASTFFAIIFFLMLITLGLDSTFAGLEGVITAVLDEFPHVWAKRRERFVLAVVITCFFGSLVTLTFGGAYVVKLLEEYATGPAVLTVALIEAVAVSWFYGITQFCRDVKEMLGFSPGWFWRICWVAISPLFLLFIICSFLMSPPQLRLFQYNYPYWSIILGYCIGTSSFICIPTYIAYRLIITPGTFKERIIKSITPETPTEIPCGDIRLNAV
Values of inhibition at 1 µM greater than or equal to 20% map to YES; values below map to NO.

Previously resolved entries follow.
1. O=C1COc2c(cccc2N2CCN(CCCCNS(=O)(=O)c3ccc(C(F)(F)F)cc3)CC2)N1 [Compound 429] = YES
2. COc1cccc(S(=O)(=O)NCCCCN2CCC(c3noc4cc(F)ccc34)CC2)c1 [Compound 300] = YES
3. O=S(=O)(NCCN1CCC(c2noc3cc(F)ccc23)CC1)c1cccc2ccccc12 [Compound 23] = YES

Inquiry: Please indicate if the recorded inhibition at 1 µM for O=S(=O)(NCCCCN1CCC(c2noc3cc(F)ccc23)CC1)c1ccc(F)c(Cl)c1 [Compound 299] meets or exceeds 20%.
Reply text: NO

Inquiry: Please indicate if the recorded inhibition at 1 µM for O=S(=O)(NCCCN1CCN(c2nsc3ccccc23)CC1)c1ccc(-c2ccccc2)cc1 [Compound 260] meets or exceeds 20%.
Reply text: YES

Inquiry: Please indicate if the recorded inhibition at 1 µM for O=S(=O)(NCCCN1CCC(c2noc3cc(F)ccc23)CC1)c1ccc2cn[nH]c2c1 [Compound 352] meets or exceeds 20%.
Reply text: YES

Inquiry: Please indicate if the recorded inhibition at 1 µM for Cc1cccc(S(=O)(=O)NCCN2CCN(c3nsc4ccccc34)CC2)c1 [Compound 11] meets or exceeds 20%.
Reply text: NO

* * *

Give measured inhibition at 1 µM for each item. Keep answers brief.
target: muscarinic M3 receptor (Homo sapiens, UniProt P20309); construct: expressed in transfected cells; host or cells: CHO cells; experiment: Binding assay M3 (h), [3H]4-DAMP, CHO cells; settings: read-out: M3 [%]
Sequence (P20309 whole entry): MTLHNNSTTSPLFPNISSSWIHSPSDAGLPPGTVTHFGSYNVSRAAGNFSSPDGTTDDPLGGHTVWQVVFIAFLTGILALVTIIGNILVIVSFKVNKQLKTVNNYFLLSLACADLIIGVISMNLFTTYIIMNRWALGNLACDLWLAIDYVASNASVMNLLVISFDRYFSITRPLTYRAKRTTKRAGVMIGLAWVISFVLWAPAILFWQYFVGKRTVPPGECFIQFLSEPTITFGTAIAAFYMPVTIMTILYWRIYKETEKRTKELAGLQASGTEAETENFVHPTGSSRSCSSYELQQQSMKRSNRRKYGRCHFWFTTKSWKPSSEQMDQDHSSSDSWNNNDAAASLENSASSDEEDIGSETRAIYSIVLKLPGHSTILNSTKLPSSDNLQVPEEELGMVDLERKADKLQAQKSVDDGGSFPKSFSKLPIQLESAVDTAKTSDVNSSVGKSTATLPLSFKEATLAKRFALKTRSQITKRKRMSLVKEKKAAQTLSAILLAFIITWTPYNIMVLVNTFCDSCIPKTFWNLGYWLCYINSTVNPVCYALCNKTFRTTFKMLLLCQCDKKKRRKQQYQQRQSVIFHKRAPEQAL
Give bare numbers, in %.

Can you give me inhibition at 1 µM for all of these, one by one?
1. O=S(=O)(NCCCCN1CCN(c2cccc3[nH]ccc23)CC1)c1ccc2cc(Cl)ccc2c1
2. O=S(=O)(NCCCCN1CCC(c2noc3cc(F)ccc23)CC1)c1ccc2c(c1)OCCO2
3. O=S(=O)(NCCCCN1CCN(c2nsc3ccccc23)CC1)c1cc2ccccc2s1
4. CC(C)(C)c1ccc(S(=O)(=O)NCCCCN2CCC(c3noc4cc(F)ccc34)CC2)cc1
5. O=S(=O)(NCCCN1CCN(c2nsc3ccccc23)CC1)c1csc2ccccc12
6. O=c1[nH]c2cccc(N3CCN(CCCNS(=O)(=O)c4cccc(Cl)c4)CC3)c2[nH]1
7. O=c1[nH]c2cccc(N3CCN(CCCCNS(=O)(=O)c4ccc5ccccc5c4)CC3)c2[nH]1

Reply text:
17
14
9
18
7
15
-8

* * *

Give measured α1 [%] for each item. Keep answers brief.
Test system: adrenergic α1 receptor
Experiment: Binding assay α1 (non-selective), [3H]prazosin, rat cerebral cortex
Settings: percent inhibition of control specific binding; compounds tested at 1×10^−6 M
Description: The specific ligand binding to the receptors is defined as the difference between the total binding and the nonspecific binding determined in the presence of an excess of so unlabelled ligand. The specific Ligand binding to the receptor is defined as the difference between total and non-specific binding determined in the presence of an excess of unlabelled ligand. The compounds were tested at a concentration of 1×10^−6 M, and scintillation counting was the method of detection of ligand binding.
Answers are plain numbers, in %.

For orientation, consider the following solved cases.
1) O=S(=O)(NCCCCN1CCN(c2cccc3[nH]ccc23)CC1)c1cc2ccc(Cl)cc2s1 = 92
2) O=S(=O)(NCCCCN1CCN(c2cccc3c2OCCO3)CC1)c1cccs1 = 92
3) O=C1COc2c(cccc2N2CCN(CCCCNS(=O)(=O)c3cccc(Cl)c3)CC2)N1 = 90

Can you give me α1 [%] for all of these, one by one?
1. O=S(=O)(NCCCN1CCN(c2nsc3ccccc23)CC1)c1csc2ccccc12
2. O=S(=O)(NCCCCN1CCN(c2nsc3ccccc23)CC1)c1ccc(C(F)(F)F)cc1

Reply text:
90
91
